// provenance: patent US20230265151A1

molecular target: hGLP-1R (Homo sapiens, UniProt P43220); assay: cell-based or functional assay
*1 amine or outer side, *2 acyl side, *3 side chain or, on linkers, in order; H or OH if unused. Where no end group is shown, it is not given here. Side-chain parts run from the residue outwards. [ ]: non-standard residue; d: D form. The star is where a group is joined. αMePhe(2-F) = C[C@](N)(Cc1ccccc1F)C(=O)O; γGlu = O=C(O)[C@H](CCC(=O)[*:2])N[*:1]; αMeY = C[C@](N)(Cc1ccc(O)cc1)C(=O)O; 4Pal = N[C@@H](Cc1ccncc1)C(=O)O; αMeL = CC(C)C[C@](C)(N)C(=O)O; Lauroyl = CCCCCCCCCCCC(=O)*; Orn = NCCC[C@H](N)C(=O)O; AEEA = NCCOCCOCC(=O)O; Aib = CC(C)(N)C(=O)O
reported-property: cAMP Emax (%)
Respond numerically; units are % and should not be typed.

Quick note, cAMP Emax for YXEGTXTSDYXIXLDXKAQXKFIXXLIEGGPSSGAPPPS (Y-Aib-EGT-αMeF(2F)-TSDY-Aib-I-αMeL-LD-Orn-K((2-[2-(2-Amino-ethoxy)-ethoxy]-acetyl)-(γ-Glu)-CO-(CH2)12-CO2H)AQ-Aib-K((2-[2-(2-Amino-ethoxy)-ethoxy]-acetyl)-(γ-Glu)-CO-(CH2)12-CO2H)FI-(D-Glu)-αMeY-LIEGGPSSGAPPPS-NH2) [Example 366] landed at 89.6

Quick note, cAMP Emax for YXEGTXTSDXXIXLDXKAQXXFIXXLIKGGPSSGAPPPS (Y-Aib-EGT-αMeF(2F)-TSD-4Pal-Aib-I-αMeL-LD-Orn-K((2-[2-(2-Amino-ethoxy)-ethoxy]-acetyl)2-(γ-Glu)-CO-(CH2)10-CH3)AQ-Aib-4Pal-FI-(D-Glu)-αMeY-LIK((2-[2-(2-Amino-ethoxy)-ethoxy]-acetyl)2-(γ-Glu)-CO-(CH2)10-CH3)GGPSSGAPPPS-NH2) [Example 416] landed at 104

Quick note, cAMP Emax for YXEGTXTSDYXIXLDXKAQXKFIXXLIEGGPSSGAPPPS (Y-Aib-EGT-αMeF(2F)-TSDY-Aib-I-αMeL-LD-Orn-K((2-[2-(2-Amino-ethoxy)-ethoxy]-acetyl)2-CO-(CH2)12-CO2H)AQ-Aib-K((2-[2-(2-Amino-ethoxy)-ethoxy]-acetyl)2-CO-(CH2)12-CO2H)FI-(D-Glu)-αMeY-LIEGGPSSGAPPPS-NH2) [Example 385] landed at 100

Quick note, cAMP Emax for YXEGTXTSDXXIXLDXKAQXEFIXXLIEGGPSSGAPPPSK (Y-Aib-EGT-αMeF(2F)-TSD-4Pal-Aib-I-αMeL-LD-Orn-K((2-[2-(2-Amino-ethoxy)-ethoxy]-acetyl)-(γ-Glu)-CO-(CH2)10-CH3)AQ-Aib-EFI-(D-Glu)-αMeY-LIEGGPSSGAPPPSK((2-[2-(2-Amino-ethoxy)-ethoxy]-acetyl)-(γ-Glu)-CO-(CH2)10-CH3)-NH2) [Example 428] landed at 106

Quick note, cAMP Emax for Y[Aib]EGT[αMePhe(2-F)]TSDK([AEEA-AEEA-γGlu-Lauroyl])[Aib]I[αMeL]LD[Orn]K([AEEA-AEEA-γGlu-Lauroyl])AQ[Aib][4Pal]FI[dE][αMeY]LIEGGPSSGAPPPS-NH2 [Example 415] landed at 109
